From: patent US20160002273A1

- TESTED_ON: SIRT2 (Homo sapiens, UniProt Q8IXJ6)
- Sequence (Q8IXJ6 whole entry): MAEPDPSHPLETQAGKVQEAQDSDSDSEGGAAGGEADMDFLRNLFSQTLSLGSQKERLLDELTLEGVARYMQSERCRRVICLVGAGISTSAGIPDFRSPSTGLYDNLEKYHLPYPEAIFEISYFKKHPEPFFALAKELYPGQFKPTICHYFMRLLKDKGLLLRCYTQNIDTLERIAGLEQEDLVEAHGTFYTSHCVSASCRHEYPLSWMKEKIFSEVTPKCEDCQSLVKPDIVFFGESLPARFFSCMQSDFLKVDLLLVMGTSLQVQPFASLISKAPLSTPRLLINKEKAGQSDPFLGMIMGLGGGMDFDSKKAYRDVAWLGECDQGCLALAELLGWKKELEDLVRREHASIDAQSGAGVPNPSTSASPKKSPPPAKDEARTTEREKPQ
- TEST_DETAILS: SIRT2 deacetylation of Trp 5-mer peptide, OAADPr mass spec assay
- Type: biochemical
- Design: His-SIRT2(1-389)
- MEASUREMENT_SETUP: Trp 5-mer peptide; class symbols; read-out: Trp SIRT2_IC50
OUTCOME_MEASURE: IC50

Record excerpt, results attached:
>>> df
                                   compound                             tested_on    observed_value
0  CCNC(=O)c1ccc(C(=O)NCCC2CCN(c3ncnc4ccsc34)CC2)s1 [Compound 193]  SIRT2 (Homo sapiens, UniProt Q8IXJ6)        > 10000 nM
1  NC(=O)c1cc2ncnc(N3CCC(CN4CCCC4)CC3)c2s1 [Compound 33]  SIRT2 (Homo sapiens, UniProt Q8IXJ6)         < 1000 nM
2  CCNC(=O)c1cc(Br)cc(C(=O)NCCC2CCN(c3ncnc4cc(C(N)=O)sc34)CC2)c1 [Compound 136]  SIRT2 (Homo sapiens, UniProt Q8IXJ6)         < 1000 nM
3  NCCN1CCN(c2ncnc3cc(C(N)=O)oc23)CC1 [Compound 96]  SIRT2 (Homo sapiens, UniProt Q8IXJ6)  1000 to 10000 nM
4  Cc1nc(N2CCN(CCN)CC2)c2sc(C(N)=O)cc2n1 [Compound 153]  SIRT2 (Homo sapiens, UniProt Q8IXJ6)  1000 to 10000 nM

Task item: May I ask what IC50 has been recorded for CC(C)(C)C(=O)NCCC1CCN(c2nccc3cc(C(N)=O)sc23)CC1 [Compound 38] ?
Reply: < 1000 nM

Task item: Please do the same for CC(C)(C)C(=O)NCCC1CCN(c2ncnc3ccsc23)CC1 [Compound 42] as well.
Reply: > 10000 nM

Task item: Entry to check: NCCN1CCN(c2ncnc3cc(C(N)=O)sc23)CC1 [Compound 16b]
Reply: < 1000 nM

Task item: Another: NCCC1CCN(c2ccnc3cc(C(N)=O)sc23)CC1 [Compound 104]
Reply: < 1000 nM

Task item: // repeat for NC(=O)c1cc2ncnc(N3CCC(O)(CN4CCCC4)CC3)c2s1 [Compound 58] and report
Reply: 1000 to 10000 nM

Task item: Next record, please: Cc1nc(N2CCN(CCNC(=O)C(C)(C)C)CC2)c2sc(C(N)=O)cc2n1 [Compound 156]
Reply: < 1000 nM

Task item: And what about the compound CC(C)(C)C(=O)NCCN1CCN(c2ncnc3cc(C(N)=O)sc23)CC1 [Compound 30] ?
Reply: < 1000 nM

Task item: // repeat for NCC1CCN(c2ncnc3cc(C(N)=O)sc23)CC1 [Compound 59] and report
Reply: > 10000 nM
